# Target Or Test System: Hexose transporter 1 (Plasmodium falciparum) (UniProt O97467)
# Protocol Notes: ST_JUDE_LEISH: Cytotoxicity at 2uM final concentration against transgenic Leishmania Mexicana promastigotes LmPfHT that are glucose transport deficient and complemented with the Plasmodium falciparum hexose transporter. Activity is measured by DNA content using SYBR green in vitro
# Type: functional
Measurement Type: inhibition (%)
Give just the number in %; leave the unit off.

Query block: // map "COc1ccc(C(=O)Nc2ccc3nc(N4CCCCC4)cc(C)c3c2)cc1[N+](=O)[O-]" to recorded inhibition (system: Hexose transporter 1 (Plasmodium falciparum) (UniProt O97467))
Result block: 3.3

Query block: Okay, and "c1cc(-c2ccc(CNCCCn3ccnc3)cc2)cc(-c2nc3ccccc3[nH]2)c1" ?
Result block: 2.53

Query block: Okay, and O=C(Nc1cccc(C(F)(F)F)c1)c1cccc(S(=O)(=O)NCC2CCCN(CC3CCCCC3)C2)c1 (centres undefined) ?
Result block: 0.12

Query block: Okay, and O=C(/C=C/c1ccc(Cl)c(Cl)c1)NCCCCCN1CCCC(C(=O)Nc2cccc(Cl)c2)C1 (centres undefined) ?
Result block: 2.5

Query block: Okay, and "Oc1ccc(Nc2nc(NCc3ccccc3)c3ccccc3n2)cc1" ?
Result block: 27.1
